# Measured target: T1, murine ENTPD3 expressed on HEK293T cells (mouse, UniProt Q8BFW6 1-529)
# T1 construct: Transiently transfected HEK293T cells (vector with eGFP behind a P2A site); also called mENTPD3; mouse ENTPD3
# T1 sequence: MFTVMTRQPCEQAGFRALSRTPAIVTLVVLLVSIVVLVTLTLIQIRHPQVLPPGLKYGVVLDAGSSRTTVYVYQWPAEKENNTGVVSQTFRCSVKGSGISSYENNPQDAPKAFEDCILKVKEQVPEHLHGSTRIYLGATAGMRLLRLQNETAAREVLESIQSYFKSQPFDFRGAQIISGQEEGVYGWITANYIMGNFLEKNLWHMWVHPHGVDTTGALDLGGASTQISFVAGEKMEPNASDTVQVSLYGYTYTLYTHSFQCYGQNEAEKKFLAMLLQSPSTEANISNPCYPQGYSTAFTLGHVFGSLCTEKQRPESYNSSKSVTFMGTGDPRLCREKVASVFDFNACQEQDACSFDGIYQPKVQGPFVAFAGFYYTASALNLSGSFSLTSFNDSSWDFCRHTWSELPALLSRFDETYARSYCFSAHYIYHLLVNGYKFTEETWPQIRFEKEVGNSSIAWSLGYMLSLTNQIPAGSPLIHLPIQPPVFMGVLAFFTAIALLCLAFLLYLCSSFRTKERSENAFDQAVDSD
# Protocol description: flow cytometry; soluble scFv on transfected HEK293T cells; anti-His PE

[
  {
    "Binder": "hg012-C8 scFv (scFv, Soluble scFv made in E. coli, with Myc tag and His tag) scFv: QVTLKESGGGLVQPGRSLRLSCAASGFTFDDYAMHWVRQAPGKGLEWVSGISWNSGSIGYADSVKGRFTISRDNAKNSLYLQMNSLRAEDTALYYCAKGANYDILTGYRKDNWFDPWGQGTLVTVSSGSASAPKLEEGEFSEARVDIVMTQTPSTLSASVGDRVTITCRASQTISNWLAWYQQKPGKAPKLLIYKASTLESGVPSRFSGTGSGTEFTLTISSLQPDDFATYFCQQYHSYSRTFGQGTKVDVARTVAAPSVAAAGSEQKLISEEDLSHHHHHH",
    "binding result": "no binding"
  },
  {
    "Binder": "hg012-A8 scFv (scFv, Soluble scFv made in E. coli, with Myc tag and His tag) scFv: QVTLKESGGGLVQPGRSLRLSCAASGFTFDDYAMHWVRQAPGKGLEWVSGISWNSGSIGYADSVKGRFTISRDNAKNSLYLQMNSLRAEDTALYYCAKGANYDILTGYRKDNWFDPWGQGTLVTVSSGSASAPKLEEGEFSEARVLPVLTQPPSASGTPGQKVTISCSGSSSNIGSNYVFWYEQLPGAAPKLLMYSSNQRPSGVPDRFSGSKSGTSASLAISGLRSEDEADYYCAAWDDSLSGWVFGGGTKLTVLGQPKAAPSVTLFPPSSAAAGSEQKLISEEDLSHHHHHH",
    "binding result": "no binding"
  },
  {
    "Binder": "hg012-C6 scFv (scFv, Soluble scFv made in E. coli, with Myc tag and His tag) scFv: EVQLVQSGGGLVQPGRSLRLSCTASGFTFGDYAMSWVRQAPGKGLEWVGFIRSKAYGGTTEYAASVKGRFTISRDDSKSIAYLQMNSLKTEDTAVYYCTRVPVVAGWYNWFDPWGQGTLVTVSSGSASAPKLEEGEFSEARVQSVLTQPPSASGTPGQRVTISCSGSSSNIGSNYVYWYQQLPGTAPKLLIYRNNQRPSGVPDRFSGSKSGNTASLTVSGLQAGDEADYYCSSYAGSNNVVFGGGTKLAVLGQPKAAPSVTLFPPSSAAAGSEQKLISEEDLSHHHHHH",
    "binding result": "no binding"
  },
  {
    "Binder": "hg012-D3 scFv (scFv, Soluble scFv made in E. coli, with Myc tag and His tag) scFv: QVQLVQSGGGLVQPGRSLRLSCAASGFTFDDYAMHWVRQAPGKGLEWVSGISWNSGSIGYADSVKGRFTISRDNAKNSLYLQMNSLRAEDTALYYCAKGANYDILTGYEYWGQGTLVTVSSGSASAPKLEEGEFSEARVQAVVTQEPSLTVSPGETVTLTCGSSTGAVTSDHHPYWFQQKPGQVPRTLMHDTSTRYSWTPARFSGSIVGGKAALTLSGAQPEDEAEYHCFLYYSGTAIFGGGTKLTVLSQPKAAPSVTLFPPSSAAAGSEQKLISEEDLSHHHHHH",
    "binding result": "no binding"
  },
  {
    "Binder": "hg012-C1 scFv (scFv, Soluble scFv made in E. coli, with Myc tag and His tag) scFv: QVQLVQSGAEVKKPGESLKISCKGSGYSFTSYWIGWVRQMPGKGLEWMGIIYPGDSGTRYSPSFQGQVTISADKSISTAYLQWSSLKASNTAMYYCARQQGAGAFDIWGQGTMVTVSSGSASAPKLEEGEFSEARVQSALTQPPSASGSPGQSVTISCTGTSRDVGGYNYVSWYQQHPGKAPKLILYEVTKRPSGVPDRFSGSKSGNTASLTISGLQAEDEADYYCSSYTSSSTVVFGGGTKLTVLGQPKAAPSVTLFPPSSAAAGSEQKLISEEDLSHHHHHH",
    "binding result": "no binding"
  }
]
